B1: TRIM29 (parent)
chain: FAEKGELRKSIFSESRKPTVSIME

# Variants of: B1
# protocol: protein stability index of a GFP-peptide fusion (GPS, HEK-293T) (PSI 1-6); higher = more stable;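 note: lentivirally expressed fusions sorted by FACS into six bins by GFP to DsRed ratio, PSI derived from sequencing read proportions per bin multiplied by bin number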
# protocol_conditions: c terminus: a fixed tail appended
Quick list: protein stability index per entry.

monomer_sequence	measured_attribute	reading
FAEKGELRKSIFWESRKPTVSIME	protein stability index	2.55
FAEKGELRKSIFSESRKPTVSHME	protein stability index	3.02

Query: protein stability index; subject: FAEKNELRKSIFSESRKPTVSIME
1.93

Query: protein stability index; subject: FAEKGELRKSIFSESRKHTVSIME
1.94
